Data provenance: the supplement of paper PMC10126150

Provide the recorded switch fluorescence ratio for the entries that follow.
Test system: ATP;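 note: ATP exposure 15 min at 22 °C before imaging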
Test: switch fluorescence ratio, 500 uM ATP over buffer (Cy3 cluster intensity, sum of 5 cycles each) (fold (ratio)); higher = stronger signal-on switching upon ATP binding; sequences stand for … in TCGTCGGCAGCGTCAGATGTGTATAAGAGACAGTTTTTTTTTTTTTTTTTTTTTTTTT…TC
Settings: aptamer strand: ATP DNA aptamer (quencher-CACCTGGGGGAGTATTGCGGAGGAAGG + anchor), 100 nM annealed; ATP concentration: 500 uM
One number for each entry.

GGAAGGTACG	0.986
GACAGCCCAG	1
GCTGATAATG	0.978

Below is a list of sequences. For each, state its recorded switch fluorescence ratio.
1. GAAACTTGTG
2. TGGGTGGCGA
3. TTTCGGCTTT
4. GTTTTGTATT
5. GGAGCGGGGA

Result ::
[0.963, 1.02, 1.24, 1, 1]

Below is a list of sequences. For each, state its recorded switch fluorescence ratio.
1. TTAAGATTTC
2. TGATGGGATG

Result ::
1: 1.13; 2: 1.01

###

Tested on: ATP;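 note: ATP exposure 15 min at 22 °C before imaging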
Assay: switch fluorescence ratio, 500 uM ATP over buffer (Cy3 cluster intensity, sum of 5 cycles each) (fold (ratio)); higher = stronger signal-on switching upon ATP binding; sequences stand for … in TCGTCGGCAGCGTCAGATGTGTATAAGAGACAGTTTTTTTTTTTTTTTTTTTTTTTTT…TC
Details: aptamer strand: ATP DNA aptamer (quencher-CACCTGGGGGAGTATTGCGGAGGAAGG + anchor), 100 nM annealed; ATP concentration: 500 uM
Reported Property: switch fluorescence ratio

Field: example entries. Status: answers known.
GGCTTGGGTT	1.01
TTATGGGTCT	1
CGACACTTAG	1.05
ACTGAATGCT	0.973

Below is a list of sequences. For each, state its recorded switch fluorescence ratio.
1. TTGTAAATCG
2. CTTGGAGGCG
3. GCGTTAATAA
4. TTGTTCATTT
5. CAGGCTAAAG
6. AATTAACGGG

Result ::
1: 0.975; 2: 1.01; 3: 1.06; 4: 0.994; 5: 0.989; 6: 1.02

Below is a list of sequences. For each, state its recorded switch fluorescence ratio.
1. TGAGCGGGTA
2. ATGTTGTTGT

Result ::
1. 1.02
2. 0.981

Below is a list of sequences. For each, state its recorded switch fluorescence ratio.
1. TTCTCGGGGG
2. CAGAATGGTG
3. TTTTTCGTGA

Result ::
1.04
0.978
1.13

###

Test system: ATP;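 note: ATP exposure 15 min at 22 °C before imaging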
Assay: switch fluorescence ratio, 500 uM ATP over buffer (Cy3 cluster intensity, sum of 5 cycles each) (fold (ratio)); higher = stronger signal-on switching upon ATP binding; sequences stand for … in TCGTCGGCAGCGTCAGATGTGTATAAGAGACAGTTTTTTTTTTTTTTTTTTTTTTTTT…TC
Details: aptamer strand: ATP DNA aptamer (quencher-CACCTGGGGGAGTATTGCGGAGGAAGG + anchor), 100 nM annealed; ATP concentration: 500 uM
Provide the recorded switch fluorescence ratio for the entries that follow.
Answers are plain numbers.

ATGGGGGGCG	1.02
CCCAGGACGC	1.4
GGGAAATATT	1.06
TCGATACATG	0.993

Below is a list of sequences. For each, state its recorded switch fluorescence ratio.
1. GGCCGGGGGC
2. GCTCGTTAGG
3. GGAGTATCCT
4. CGGTTTTACT
5. ACGGTCCAGG
6. CAAGGGTCCG

Result ::
[0.994, 0.995, 0.981, 1.04, 3, 0.991]

Below is a list of sequences. For each, state its recorded switch fluorescence ratio.
1. ACAGTATTCT
2. CCCCGACTTT
3. AAACCTATGG
4. GACAGGGATG
5. CTGAGCCGGA
6. AGAGGGCCAT

Result ::
1. 1.05
2. 1.07
3. 0.986
4. 1.02
5. 1.08
6. 0.997
